The measured values listed here are drawn from PubChem BioAssay (NCI).

System: MALME-3M melanoma
ASSAY PROTOCOL: NCI tumour cell line growth inhibition, 48 h
Measured TGI of individual entries

{"COMPOUND": "O=[N+]([O-])c1cccc2nc3ccccc3c(NCCO)c12", "TGI": "0.0017 µM"}
{"COMPOUND": "N#CCCN(CCNc1ccccc1)C(=O)Nc1ccc(NC(=O)N(CCC#N)CCNc2ccccc2)cc1", "TGI": "> 100 µM"}
{"COMPOUND": "COc1cc(-c2cncn2-c2ccc(-c3nc4ccc(F)cc4s3)cc2)ccc1F", "TGI": "> 100 µM"}
{"COMPOUND": "CC1=C(C#N)C2C(=C(C)N1)C(N)=Nc1ccccc12 (stereo unspecified)", "TGI": "> 100 µM"}
{"COMPOUND": "[N-]=[N+]=NC1=CC(=O)c2cccc3cccc1c23", "TGI": "> 100 µM"}
{"COMPOUND": "COc1cc(OC)c(C#N)c(OC)c1C", "TGI": "> 100 µM"}
{"COMPOUND": "COc1ccc(C2CC(c3ccc4ccccc4c3O)=NN2)cc1OC (stereo unspecified)", "TGI": "> 100 µM"}
{"COMPOUND": "OCCCNCC(O)c1ccc(OCc2ccccc2)c(OCc2ccccc2)c1 (stereo unspecified)", "TGI": "29.7 µM"}
{"COMPOUND": "COc1ccc(N(CC(=O)O)S(=O)(=O)c2ccccc2)cc1", "TGI": "> 100 µM"}
{"COMPOUND": "COC(=O)c1c2c(c(C)[n+]([O-])c1C)C(=O)C(NCc1cccc(Cl)c1)=CC2=O", "TGI": "0.432 µM"}
{"COMPOUND": "CC12OC3(O)C4C5CC(C6C5C3C61)C42 (stereo unspecified)", "TGI": "> 100 µM"}
{"COMPOUND": "C=C(C)[C@@H]1C/C=C(\\COC(=O)[C@H](OC(C)=O)C(NC(=O)c2ccccc2)c2ccccc2)CC[C@H]2O[C@]2(C)CC/C=C(\\C)CC1 (stereo partly specified)", "TGI": "42.6 µM"}
{"COMPOUND": "COc1cccc(NC(=O)CC(=O)Nc2cccc(OC)c2)c1", "TGI": "> 100 µM"}
{"COMPOUND": "CCOC(=O)c1ccc(NC(=O)Nc2nccs2)cc1", "TGI": "31.5 µM"}
{"COMPOUND": "COC(=O)[C@](NC(=O)OCc1ccccc1)([C@@H](C)Sc1ccc(C)cc1)C(F)(F)F", "TGI": "> 100 µM"}
{"COMPOUND": "COc1ccc(-c2cnoc2-c2ccc(OC)cc2O)cc1", "TGI": "49.5 µM"}
{"COMPOUND": "O=C(CC1(O)C(=O)Nc2ccc([N+](=O)[O-])cc21)c1ccc2ccccc2c1 (stereo unspecified)", "TGI": "> 100 µM"}
{"COMPOUND": "COc1c(-c2nc3nc(N4CCN(C)CC4)ccc3[nH]2)cc(OC)c2c1nc(CO)n2C", "TGI": "> 100 µM"}
{"COMPOUND": "COc1ccc2c(c1)O[C@@H]1[C@@H](OC3OC(CO)C(O)C(O)C3O)Oc3cc(OC)c(OC)cc3[C@]1(O)C2=O (stereo partly specified)", "TGI": "> 100 µM"}
{"COMPOUND": "Fc1cc(-c2cc(-c3ccccc3)n[nH]2)c(Cl)cc1Cl", "TGI": "> 100 µM"}
{"COMPOUND": "O=C(c1ccco1)N(Cc1cccnc1)C(=S)N(Cc1cccnc1)C(=O)c1ccco1", "TGI": "32.7 µM"}

----------
Test system: SF-268 CNS
ASSAY PROTOCOL: NCI tumour cell line growth inhibition, 48 h

{"MOLECULE": "CCOC(=O)c1ccc(NC(=O)Nc2nccs2)cc1", "TGI": "16.9 µM"}
{"MOLECULE": "COC(=O)C(Cc1nc2ccc(Cl)cc2[nH]c1=O)/C(=N/O)C(=O)Nc1cccc(Cl)c1C (centres undefined)", "TGI": "> 100 µM"}
{"MOLECULE": "Cc1c(C(=O)C(=O)c2ccccc2)c(C)c(C(=O)C(=O)c2ccccc2)c(C)c1C(=O)C(=O)c1ccccc1", "TGI": "> 100 µM"}
{"MOLECULE": "COC(=O)C(Cc1c[nH]c2ccccc12)NC(=O)C(Cc1c[nH]c2ccccc12)NC(=O)OCc1ccccc1 (centres undefined)", "TGI": "34.6 µM"}
{"MOLECULE": "O=C1C(c2ccccc2)=C(c2ccccc2)C(c2ccc(-c3ccc(C4=C(c5ccccc5)C(=O)C(c5ccccc5)=C4c4ccccc4)cc3)cc2)=C1c1ccccc1", "TGI": "> 100 µM"}
{"MOLECULE": "Cc1cc([N+](=O)[O-])c(C)c2c1[nH]c1ccc(O)cc12", "TGI": "> 100 µM"}
{"MOLECULE": "COC(=O)c1cc2cc(-c3ccc(OC)cc3)cnc2[nH]1", "TGI": "27.7 µM"}
{"MOLECULE": "COc1cc(C(=O)C(CO)Oc2ccccc2OC)ccc1O (centres undefined)", "TGI": "> 100 µM"}
{"MOLECULE": "CCC(C)NC1=C(NC(C)=O)C(=O)c2ccccc2C1=O (centres undefined)", "TGI": "> 75 µM"}

----------
System: OVCAR-4 ovarian
ASSAY PROTOCOL: NCI tumour cell line growth inhibition, 48 h
# TGI annotations
RESULT TYPE: TGI

{"COMPOUND": "Cc1cc([N+](=O)[O-])c(C)c2c1[nH]c1ccc(O)cc12", "RESULT TYPE": "TGI", "TEST VALUE": "> 100 µM"}
{"COMPOUND": "CN(C)c1ccc(O)c2c1CC1CC3C(N(C)C)C(=O)C(C(N)=O)=C(O)C3(O)C(=O)C1=C2O (centres undefined)", "RESULT TYPE": "TGI", "TEST VALUE": "> 100 µM"}
{"COMPOUND": "COC(=O)C1CCC(=O)C(Sc2ccccc2)C1 (centres undefined)", "RESULT TYPE": "TGI", "TEST VALUE": "> 100 µM"}
{"COMPOUND": "CC1OC(=O)C2CC3CCCCC3C(/C=C/C3CCCC(C)N3C)C12 (centres undefined)", "RESULT TYPE": "TGI", "TEST VALUE": "> 100 µM"}
{"COMPOUND": "COc1cc(C(=O)C(CO)Oc2ccccc2OC)ccc1O (centres undefined)", "RESULT TYPE": "TGI", "TEST VALUE": "> 100 µM"}
{"COMPOUND": "O=C(CC1(O)C(=O)Nc2ccc([N+](=O)[O-])cc21)c1ccc2ccccc2c1 (centres undefined)", "RESULT TYPE": "TGI", "TEST VALUE": "> 100 µM"}
{"COMPOUND": "CC1(C)CC2=C(SC3C=CC=CC3N2)C(=O)C1C(=O)C(N)=O (centres undefined)", "RESULT TYPE": "TGI", "TEST VALUE": "> 100 µM"}
{"COMPOUND": "O[C@H]1C=C2[C@H](C[C@@H]1O)CN1C[C@H]2c2cc3c(cc21)OCO3", "RESULT TYPE": "TGI", "TEST VALUE": "73 µM"}
{"COMPOUND": "Brc1sc(Br)c2c1[C@H](Br)C[C@@H]2Br", "RESULT TYPE": "TGI", "TEST VALUE": "44.9 µM"}

----------
In this section we review reported TGI values for a set of compounds.
System: OVCAR-5 ovarian
ASSAY PROTOCOL: NCI tumour cell line growth inhibition, 48 h
RESULT TYPE: TGI

{"COMPOUND": "O=C(COc1ccc(OCC(=O)N2C(=O)CN(c3ccc(Cl)cc3)C2=S)cc1)N1C(=O)CN(c2ccc(Cl)cc2)C1=S", "ASSAY TARGET": "OVCAR-5 ovarian", "RESULT TYPE": "TGI", "TEST VALUE": "> 100 µM"}
{"COMPOUND": "Cc1[nH]c2ncn(Nc3ccccc3)c(=N)c2c1Cc1ccccc1", "ASSAY TARGET": "OVCAR-5 ovarian", "RESULT TYPE": "TGI", "TEST VALUE": "> 100 µM"}
{"COMPOUND": "O=C1c2[nH]cc(CN3CCN(CCO)CC3)c2C(=O)c2c1c(O)c1ccccc1c2O", "ASSAY TARGET": "OVCAR-5 ovarian", "RESULT TYPE": "TGI", "TEST VALUE": "33 µM"}
{"COMPOUND": "COc1ccc(NCC#N)cc1", "ASSAY TARGET": "OVCAR-5 ovarian", "RESULT TYPE": "TGI", "TEST VALUE": "> 100 µM"}
{"COMPOUND": "CCC(C)NC1=C(NC(C)=O)C(=O)c2ccccc2C1=O (stereo not given)", "ASSAY TARGET": "OVCAR-5 ovarian", "RESULT TYPE": "TGI", "TEST VALUE": "> 75 µM"}
{"COMPOUND": "CC[N+](C)(CC)CCNC(=O)C(O)(c1ccccc1)c1ccccc1", "ASSAY TARGET": "OVCAR-5 ovarian", "RESULT TYPE": "TGI", "TEST VALUE": "> 100 µM"}
{"COMPOUND": "Cc1ccc(-c2c(C#N)c(N)[nH]c(=S)c2C#N)cc1", "ASSAY TARGET": "OVCAR-5 ovarian", "RESULT TYPE": "TGI", "TEST VALUE": "> 100 µM"}
{"COMPOUND": "CCC(CC)COC(=O)[C@H](C)N[P@](=O)(OC[C@H]1O[C@@](C#N)(c2ccc3c(N)ncnn23)[C@H](O)[C@@H]1O)Oc1ccccc1", "ASSAY TARGET": "OVCAR-5 ovarian", "RESULT TYPE": "TGI", "TEST VALUE": "> 100 µM"}
{"COMPOUND": "CN(CC(=O)O)c1ncc2c(n1)-c1ccccc1OC2c1ccccc1 (stereo not given)", "ASSAY TARGET": "OVCAR-5 ovarian", "RESULT TYPE": "TGI", "TEST VALUE": "> 100 µM"}
{"COMPOUND": "CNCCCNc1c2cc(OC)ccc2nc2cccc([N+](=O)[O-])c12", "ASSAY TARGET": "OVCAR-5 ovarian", "RESULT TYPE": "TGI", "TEST VALUE": "0.0993 µM"}
